Ref: BindingDB's records for doi:10.1124/jpet.104.067884

# Target Desc: Cannabinoid receptor 1 (Homo sapiens, UniProt P21554)
# Sequence (P21554 whole entry): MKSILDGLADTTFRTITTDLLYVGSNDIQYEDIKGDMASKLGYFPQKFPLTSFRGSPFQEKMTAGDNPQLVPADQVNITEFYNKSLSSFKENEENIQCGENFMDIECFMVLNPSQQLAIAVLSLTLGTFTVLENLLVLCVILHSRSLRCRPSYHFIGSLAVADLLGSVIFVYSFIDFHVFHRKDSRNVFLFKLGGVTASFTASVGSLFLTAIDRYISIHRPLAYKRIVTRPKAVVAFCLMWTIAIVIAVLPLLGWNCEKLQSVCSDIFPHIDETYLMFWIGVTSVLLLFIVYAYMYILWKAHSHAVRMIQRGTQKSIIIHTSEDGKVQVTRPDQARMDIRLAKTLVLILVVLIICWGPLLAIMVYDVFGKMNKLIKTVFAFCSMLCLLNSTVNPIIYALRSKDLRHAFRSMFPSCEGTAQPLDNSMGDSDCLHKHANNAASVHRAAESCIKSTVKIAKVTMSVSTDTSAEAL
pKi: −log10 of the molar value.

| Structure | pKi |
| --- | --- |
| CCc1c(C(=O)NN2CCCCC2)nn(-c2ccc(Cl)cc2Cl)c1-c1ccc(Br)cc1 | 8.46 |

###

# Target Desc: Cannabinoid receptor 2 (Homo sapiens)
# Sequence (P34972 whole entry): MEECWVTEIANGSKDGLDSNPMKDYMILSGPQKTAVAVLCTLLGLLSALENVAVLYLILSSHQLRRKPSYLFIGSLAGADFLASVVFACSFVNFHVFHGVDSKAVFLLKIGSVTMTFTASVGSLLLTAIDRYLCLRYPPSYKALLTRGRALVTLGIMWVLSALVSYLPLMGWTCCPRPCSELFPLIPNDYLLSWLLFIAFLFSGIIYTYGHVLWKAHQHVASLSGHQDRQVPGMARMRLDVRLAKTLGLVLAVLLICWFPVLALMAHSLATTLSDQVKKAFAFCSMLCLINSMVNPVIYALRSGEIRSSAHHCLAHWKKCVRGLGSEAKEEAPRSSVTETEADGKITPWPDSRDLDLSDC

| Compound | Target Desc | Ki, nM |
| --- | --- | --- |
| CCc1c(C(=O)NN2CCCCC2)nn(-c2ccc(Cl)cc2Cl)c1-c1ccc(Br)cc1 [SR 147778] | Cannabinoid receptor 2 (Homo sapiens) | 442 |
